# ASSAY: protein stability index of a GFP-peptide fusion (yeast GPS) (PSI 1-4); higher = more stable; sorted into four equal gates, so the index is relative within each strain
# EXPERIMENTAL SETUP: doa10∆
Lab note: compare protein stability index against 3. Equal or greater, write Criterion met. Smaller, write Criterion not met.

Worked examples, 2 sequences total:
# ENTRY SEQUENCE, CLASS ASSIGNMENT
rows = [
    ("EEAAGTKMFEDRREKAE [SMC2]", "Criterion met"),
    ("NQVMMDRKIQGWLGALT [ARP7]", "Criterion not met"),
]

Evaluate ADTLDPALLRPGRLDRK [RPT3] : protein stability index at minimum 3?
Criterion met

Kindly determine if protein stability index recorded for KRSFSSTLKSFFTNPNK [YOR098C/NUP1] is above or exactly 3.
Criterion not met

Is reported protein stability index greater than or equal to 3 here: QAHEIVIPSYSKWFNLE [SWI3]
Criterion not met
